Sourced from FireProtDB (doi:10.1016/j.jmb.2009.11.038)

B1: H8P, Q5NV88 (parent)
chain: NFMLTQPHSVSESPGKTVTISCTRSSGSIASNYVQWYQQRPGSSPTTVIYEDNQRPSGVPDRFSGSIDSSSNSASLTISGLKTEDEADYYCQSYDSSN

# Variants of: B1
# condition-notes: Homo sapiens; pH 7.5; Thermal; Fluorescence; Sodium phosphate 20mM; transition: 2; structure 2W0K; whole UniProt chain shown
Would you kindly list unfolding free energy for each of these variants?
Give a bare numeral; the unit kcal/mol is implied.

So, H8P ? Its unfolding free energy was 4.4

So, P7S ? Its unfolding free energy was 3.7

So, H8S ? Its unfolding free energy was 5

So, P7S H8S ? Its unfolding free energy was 3.8
